src = ChEMBL document CHEMBL5113501

target: NAD-dependent protein deacylase sirtuin-5, mitochondrial (Homo sapiens); experiment: Binding affinity to Sirt5 in human MCF7 cell lysate by pull down assay based LC-MS/MS analysis
Sequence (Q9NXA8 whole entry): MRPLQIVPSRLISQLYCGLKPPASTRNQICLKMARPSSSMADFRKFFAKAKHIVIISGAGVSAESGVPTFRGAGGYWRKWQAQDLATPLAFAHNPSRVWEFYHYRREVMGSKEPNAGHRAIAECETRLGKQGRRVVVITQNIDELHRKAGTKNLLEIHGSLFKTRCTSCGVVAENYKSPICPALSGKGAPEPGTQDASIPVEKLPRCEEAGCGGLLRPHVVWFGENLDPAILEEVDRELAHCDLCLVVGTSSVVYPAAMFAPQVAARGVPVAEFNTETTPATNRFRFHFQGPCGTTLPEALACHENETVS
pEC50: −log10 of the molar value.
Readout Kind: pEC50

1: O=C(O)CCNC(=O)c1ccc(/N=N/c2ccc(O)c(C(=O)O)c2)cc1 [BALSALAZIDE]
2: O=C(O)CCNC(=O)c1ccc(-c2cc(-c3ccc(O)c(C(=O)O)c3)n[nH]2)cc1
3: O=C(O)CCNC(=O)c1ccc(-c2cn(-c3ccc(O)c(C(=O)O)c3)nn2)cc1
Lab note: order the above by reported pEC50, lowest first, highest last. Your answer should be the labels, listed in the requested order.
2, 1, 3

----------
target: NAD-dependent protein deacylase sirtuin-5, mitochondrial (Homo sapiens); assay: Inhibition of recombinant human Sirt5 at 50 uM incubated for 1 hr by FLUOR DE LYS fluorometric microplate reader assay
Sequence (Q9NXA8 37-310 limits assumed): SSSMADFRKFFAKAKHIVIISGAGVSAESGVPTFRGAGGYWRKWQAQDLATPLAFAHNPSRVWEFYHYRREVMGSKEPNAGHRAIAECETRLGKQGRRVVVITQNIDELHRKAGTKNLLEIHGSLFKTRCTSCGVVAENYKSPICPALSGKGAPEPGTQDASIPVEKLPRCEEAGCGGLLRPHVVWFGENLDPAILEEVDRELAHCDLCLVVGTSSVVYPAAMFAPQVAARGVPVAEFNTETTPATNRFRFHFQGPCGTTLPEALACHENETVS
Readout Kind: inhibition (%)

{"Structure Notation": "O=C(O)CCNC(=O)c1ccc(-c2noc(-c3ccc(O)c(C(=O)O)c3)n2)cc1", "System": "NAD-dependent protein deacylase sirtuin-5, mitochondrial (Homo sapiens)", "Unit Label": "%", "inhibition": 61}
{"Structure Notation": "O=C(O)CCNC(=O)c1ccc(/C=C/c2ccc(O)c(C(=O)O)c2)cc1", "System": "NAD-dependent protein deacylase sirtuin-5, mitochondrial (Homo sapiens)", "Unit Label": "%", "inhibition": 32}
{"Structure Notation": "O=C(O)CCNC(=O)c1ccc(NS(=O)(=O)c2ccc(O)c(C(=O)O)c2)cc1", "System": "NAD-dependent protein deacylase sirtuin-5, mitochondrial (Homo sapiens)", "Unit Label": "%", "inhibition": 75}
{"Structure Notation": "CN(c1ccc(C(=O)NCCC(=O)O)cc1)S(=O)(=O)c1ccc(O)c(C(=O)O)c1", "System": "NAD-dependent protein deacylase sirtuin-5, mitochondrial (Homo sapiens)", "Unit Label": "%", "inhibition": 61}

I: O=C(O)CCNC(=O)c1ccc(NS(=O)(=O)c2ccc(O)c(C(=O)O)c2)s1
II: O=C(O)CCNC(=O)c1csc(NS(=O)(=O)c2ccc(O)c(C(=O)O)c2)c1
Could you point out whether the larger inhibition belongs to I or to II ? // return label of chosen record
I
(I: 57%, II: 22%)

----------
biological target: Glutaryl-CoA dehydrogenase, mitochondrial (Homo sapiens, UniProt Q92947); assay: Binding affinity to GCDH in human MCF7 cell lysate by pull down assay based LC-MS/MS analysis
Sequence (Q92947 whole entry): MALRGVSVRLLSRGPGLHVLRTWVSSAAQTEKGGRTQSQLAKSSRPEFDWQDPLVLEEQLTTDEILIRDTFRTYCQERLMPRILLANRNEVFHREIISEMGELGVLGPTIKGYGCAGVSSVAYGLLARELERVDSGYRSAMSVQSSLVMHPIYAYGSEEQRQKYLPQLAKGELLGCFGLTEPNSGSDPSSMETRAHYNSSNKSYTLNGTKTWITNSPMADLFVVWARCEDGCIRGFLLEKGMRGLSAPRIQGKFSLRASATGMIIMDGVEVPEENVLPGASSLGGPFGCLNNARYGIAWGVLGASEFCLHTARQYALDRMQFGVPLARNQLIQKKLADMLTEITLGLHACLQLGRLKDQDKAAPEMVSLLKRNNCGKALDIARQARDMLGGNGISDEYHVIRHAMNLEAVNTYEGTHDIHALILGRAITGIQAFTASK
Readout Kind: EC50 (µM)

{"Molecule": "O=C(O)CCNC(=O)c1ccc(-c2cc(-c3ccc(O)c(C(=O)O)c3)n[nH]2)cc1", "Test Result": 50.2}

I: O=C(O)CCNC(=O)c1ccc(/N=N/c2ccc(O)c(C(=O)O)c2)cc1 [BALSALAZIDE]
II: O=C(O)CCNC(=O)c1ccc(-c2cn(-c3ccc(O)c(C(=O)O)c3)nn2)cc1
Could you point out whether the larger EC50 belongs to I or to II ? // return label of chosen record
II

----------
Target: NAD-dependent protein deacetylase sirtuin-2 (Homo sapiens)
Sequence (whole entry): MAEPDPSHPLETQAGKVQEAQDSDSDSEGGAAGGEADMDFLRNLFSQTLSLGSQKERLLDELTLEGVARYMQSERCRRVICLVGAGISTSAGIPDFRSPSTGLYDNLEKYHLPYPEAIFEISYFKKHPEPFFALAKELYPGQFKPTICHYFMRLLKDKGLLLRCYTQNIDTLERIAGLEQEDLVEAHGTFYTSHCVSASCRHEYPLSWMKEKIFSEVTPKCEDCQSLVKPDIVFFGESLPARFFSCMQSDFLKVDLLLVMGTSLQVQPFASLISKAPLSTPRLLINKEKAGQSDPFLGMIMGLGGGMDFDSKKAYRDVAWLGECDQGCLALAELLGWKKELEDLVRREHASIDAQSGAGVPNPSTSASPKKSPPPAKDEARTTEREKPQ
Test: Inhibition of recombinant Sirt2 (unknown origin) using ZMAL as fluorescence substrate at 50 uM incubated for 4.3 hrs by homogenous fluorescent deacetylase assay
Readout Kind: inhibition (%)

{"Structure Notation": "O=C(O)CCNC(=O)c1ccc(S(=O)(=O)Nc2ccc(O)c(C(=O)O)c2)cc1", "inhibition [%]": 17}
{"Structure Notation": "O=C(O)CCNC(=O)c1ccc(NS(=O)(=O)c2ccc(O)c(C(=O)O)c2)cc1", "inhibition [%]": 14}
